- System: SW-620 colon
- method_notes: NCI-60 one-dose screen, 48 h
- experimental_context: 10 µM unless noted
This is part of a sample that, as a whole, favours compounds with a hit. Of some 83,000 tested, about 20% had one in any assay. The source made the active and inactive calls. The calls were made as follows: active = growth percent below 10; inactive = the rest.
Return exactly one item of 1.0 = active, 0.0 = inactive

Look over these answered cases.
{"molecule": "Cc1c(C)c2c(c(C)c1OC(=O)CCC(=O)[O-])CCC(C)(CCCCCCCCCCC[P+](c1ccccc1)(c1ccccc1)c1ccccc1)O2 (centres undefined)", "assigned_label": 1.0}
{"molecule": "COc1ccc(/C=N/NC(=O)Cn2nnc3ccccc32)cc1", "assigned_label": 0.0}
{"molecule": "CC/C(=C(/c1ccc(Cl)cc1)c1ccc(OCCN(CC)CC)cc1)c1ccc(OC)cc1", "assigned_label": 0.0}
{"molecule": "COc1ccc(Cn2cc(C(=O)N=Nc3c(O)[nH]c4ccc(Br)cc34)nn2)cc1", "assigned_label": 0.0}
{"molecule": "Cc1[nH]c(C2CC(c3ccc(C(F)(F)F)c(F)c3)=NN2C)c(C)c1C(=O)NCC(F)(F)F (centres undefined)", "assigned_label": 0.0}

Just curious, what result did O=C1NC(=O)C(=Cc2cc(-c3ccc(Cl)cc3)n(-c3ccccc3)n2)C(=O)N1 get here?
0.0

###

- Tested on: UACC-62 melanoma
- method_notes: NCI-60 one-dose screen, 48 h (100 = growth as untreated, 0 = no growth, -100 = all killed)
- experimental_context: 10 µM unless noted
The panel holds about 83,000 compounds, 20% with a hit somewhere; the sample as a whole holds those more often.
# if measured growth < 30%: Fulfilled  # else: Not fulfilled

Look over these answered cases.
{"compound": "CSc1nc(N)c2c(n1)NC(c1ccccc1)C1CCc3ccccc3C1=N2 (configuration not stated)", "assigned_label": "Not fulfilled"}
{"compound": "Nc1ncc(-c2ccc3ncnc(N4CCc5cc(F)c(Cl)cc54)c3c2)cc1C=O", "assigned_label": "Fulfilled"}

# TODO verify growth < 30% strictly for this compound: Cc1ccc(Nc2nc(N)nc(N)c2N=O)cc1Cl
Not fulfilled

Field entry: CCN(CC)c1ccc(/C=N/NC(=O)c2ccccc2Nc2ccnc(C(F)(F)F)c2)c(O)c1
Fulfilled

Field entry: COc1cc(/C=N/NC(=O)c2ccc3nc(-c4ccc(Cl)cc4)[nH]c3c2)cc(OC)c1OC
Fulfilled

Field entry: CCNc1nc(-c2ccc(Cl)c(OC)c2)c(-c2ccnc(NCCNS(=O)(=O)c3ccc(Cl)cc3)n2)s1
Fulfilled

Field entry: CCOC(=O)C#Cc1c(CC(=O)OCC)nnn1[C@H]1O[C@@H](CO)[C@@H]2OC(C)(C)O[C@@H]21
Not fulfilled

###

Would you kindly list growth for each of these molecules?
- Tested on: SN12C renal
- method_notes: NCI-60 one-dose screen, 48 h (100 = growth as untreated, 0 = no growth, -100 = all killed)
- experimental_context: 10 µM unless noted
This is part of a sample that, as a whole, favours compounds with a hit. Of some 83,000 tested, about 20% had one in any assay.
Answers are plain numbers, in %.

{"molecule": "CN1CCN(c2ccc(Nc3ncc4[nH]c(=O)n(Cc5ccccc5N)c4n3)cc2)CC1", "growth, %": 86.5}

Parameter requested: growth. Apply to each item below.
1. Cn1nc(-c2ccc(Cl)cc2)nc2c(=O)n(C)c(=O)nc1-2
2. COc1cc(-c2c(-c3ccccc3)c[nH]c2C(=O)NCCCO)c(OC)c2c1OCO2
3. C#CCOC(=O)C(N)CSSCC(N)C(=O)O (configuration not stated)
4. CCNc1nc(-c2ccc(Cl)c(OC)c2)c(-c2ccnc(NCCNS(=O)(=O)c3ccc(Cl)cc3)n2)s1

-72.5
97.1
105
36.1

Parameter requested: growth. Apply to each item below.
1. Clc1nc(N2CCC[N+]3(CC2)CC[N+]2(CCCNCC2)CC3)nc(N2CCC[N+]3(CC2)CC[N+]2(CCCNCC2)CC3)n1 (configuration not stated)
2. Nc1nc(N)c2c(n1)NC(c1cccc(Nc3ccnc4cc(C(F)(F)F)ccc34)c1)CC(c1ccc(Cl)cc1)=N2 (configuration not stated)
3. Nc1c(C(=O)c2ccc(Cl)cc2)sc(Nc2ccccc2)c1-c1nc2ccccc2s1

1. 93.7
2. 63.9
3. 82.6

Parameter requested: growth. Apply to each item below.
1. C=C(C)[C@@H]1CCC[C@]2(C(=O)OC)CC[C@]3(C)[C@@H](CC[C@@H]4[C@@]5(C)CCCNC(C)(C)[C@@H]5CC[C@]43C)[C@@H]12
2. Cc1ccc(Nc2nc(N)nc(N)c2N=O)cc1Cl

92.1
90

Parameter requested: growth. Apply to each item below.
1. N#C/C(Sc1nc2sc3c(c2c(=O)n1Cc1ccccc1)CCCC3)=C1/SC=C(c2ccc(Cl)cc2)N1c1ccccc1
2. CCOc1cc(\C=N/N=C(N)/C(N)=N\N=C/c2ccc(O)c(OCC)c2)ccc1O

1. 98
2. 101

###

Would you kindly list growth for each of these molecules?
- Test system: NCI-H460 lung
- method_notes: NCI-60 one-dose screen, 48 h (100 = growth as untreated, 0 = no growth, -100 = all killed)
- experimental_context: 10 µM unless noted
- Procedure: Growth inhibition of the NCI-H460 human Non-Small Cell Lung tumor cell line is measured as a screen for anti-cancer activity. Cells are grown in 96 well plates and exposed to the test compound for 48 hours. Compounds are tested at a single concentration, which is 10^-5 M for most compounds. The reported endpoint is percent growth (GI% or GIPRCNT), where numbers from 0 - 100% represent growth inhibition, and numbers from -100% - 0 represent cell death. […]
The panel holds about 83,000 compounds, 20% with a hit somewhere; the sample as a whole holds those more often. Activity calls are given as the source filed them. Rule for the calls: active = growth percent below 10; inactive = the rest.

Below: 2 molecules and their reported growth.
{"smiles_repr": "CCCS(=O)(=O)Nc1cccc(Nc2ncnc3cc(NC(=O)CCl)ccc23)c1Cl", "recorded_endpoint": "growth", "result": "-41.1% (active)"}
{"smiles_repr": "CCOC(=O)c1c(C)nc2c(c1N)C(=O)C(=O)N2CCc1ccc(OC)c(OC)c1", "recorded_endpoint": "growth", "result": "88.2% (inactive)"}

Okay, now this molecule:
Which growth is reported for this molecule? O=C(O)c1nn(-c2ccc(Cl)cc2)nc1N1CCCC1
101% (inactive)

###

Would you kindly list growth for each of these molecules?
- Tested on: SK-MEL-5 melanoma
- method_notes: NCI-60 one-dose screen, 48 h (100 = growth as untreated, 0 = no growth, -100 = all killed)
- experimental_context: 10 µM unless noted
- Experimental: Growth inhibition of the SK-MEL-5 human tumor cell line is measured as a screen for anti-cancer activity. Cells are grown in 96 well plates and exposed to the test compound for 48 hours. Compounds are tested at a single concentration, which is 10^-5 M for most compounds. The reported endpoint is percent growth (GI% or GIPRCNT), where numbers from 0 - 100% represent growth inhibition, and numbers from -100% - 0 represent cell death. For example, a value of 40 represents 60% growth inhibition. […]
This is part of a sample that, as a whole, favours compounds with a hit. Of some 83,000 tested, about 20% had one in any assay.
One number for each entry, in %.

Below: 2 molecules and their reported growth.
{"molecule": "Oc1c(Cl)cc(Cl)c2ccc(CN3CCNCC3)nc12", "uom": "%", "growth": 42.8}
{"molecule": "O=CN1N=C(c2cccc(Nc3ccncc3)c2)CC1c1ccc2c(c1)OCO2 (stereo not drawn)", "uom": "%", "growth": 91.8}

Okay, now this molecule:
Which growth is reported for this molecule? CN(C)c1ccc(Cc2cc(-c3ccccc3)nn(C/C(=N/O)c3ccccc3)c2=O)cc1
55.8

###

- Test system: SF-268 CNS
- method_notes: NCI-60 one-dose screen, 48 h
- experimental_context: 10 µM unless noted
- Protocol: Cells are grown in 96 well plates and exposed to the test compound for 48 hours. Compounds are tested at a single concentration, which is 10^-5 M for most compounds. The reported endpoint is percent growth (GI% or GIPRCNT), where numbers from 0 - 100% represent growth inhibition, and numbers from -100% - 0 represent cell death. For example, a value of 40 represents 60% growth inhibition. A value of 0 means no net growth occurred over the course of the experiment. […]
This is part of a sample that, as a whole, favours compounds with a hit. Of some 83,000 tested, about 20% had one in any assay. The source made the active and inactive calls. Rule for the calls: active = growth percent below 10; inactive = the rest.
Return exactly one item of label 1 = active, label 0 = inactive

{"compound": "C=C(CNCCO)[C@@H]1CC[C@]2(CO)CC[C@]3(C)[C@H](CC[C@@H]4[C@@]5(C)CCC(NCCO)C(C)(C)[C@@H]5CC[C@]43C)[C@@H]12 (stereo partly drawn)", "target_or_system": "SF-268 CNS", "assigned_label": "label 0"}
{"compound": "CCOC(=O)c1cnc2sc(-c3ccc(OC)cc3)nc2c1Cl", "target_or_system": "SF-268 CNS", "assigned_label": "label 0"}
{"compound": "O=C1OCC2=C1C(c1cccc(F)c1)c1cc3c(cc1N2CCO)CCC3 (stereo not drawn)", "target_or_system": "SF-268 CNS", "assigned_label": "label 0"}
{"compound": "C=C(C[n+]1ccccc1)[C@@H]1CC[C@]2(C(=O)OC)CC[C@]3(C)[C@H](CC[C@@H]4[C@@]5(C)CCC(=O)C(C)(C)[C@@H]5CC[C@]43C)[C@@H]12", "target_or_system": "SF-268 CNS", "assigned_label": "label 0"}
{"compound": "CCOC(=O)c1c(N)sc2cc(O)ccc12", "target_or_system": "SF-268 CNS", "assigned_label": "label 0"}

Just curious, what result did CC(C)(C)n1cc(-c2ccnc(NCCNS(=O)(=O)c3ccc(C(F)(F)F)cc3)c2)c(-c2ccccc2)n1 get here?
label 0

Field entry: COC(=O)c1nc(-c2ccccc2)oc1S(=O)(=O)N1CCN(c2ccc(OC)cc2)CC1
label 0

Field entry: Cc1ccc(Nc2nc(N)nc(N)c2N=O)cc1Cl
label 0

Field entry: CCCCCCCC/C=C\CCCCCCCCOc1ccc(CC(=O)NCC[N+]2(C)CCCC2)cc1
label 0

Field entry: C=CCNc1nc(O)c(/C=C2\C=Nc3ncccc32)s1
label 1

Field entry: CCCCCCCCCCCCCCCCCCOc1ccccc1CC(=O)OCC[N+]1(C)CCCCC1
label 0

Field entry: Cn1cc(-c2nc(-c3c[nH]c4ccncc34)cs2)c2cc(F)ccc21
label 1

Field entry: CC/C(=C(/c1ccc(Cl)cc1)c1ccc(OCCCN(C)C)cc1)c1ccc(OC)cc1
label 0

Field entry: COc1ccc(C(=O)/C=C/c2ccc(Cl)cc2)cc1S(N)(=O)=O
label 0
